- ASSAY EXPLANATION: Stability of the nine components in rat plasma QC samples (auto-sampler, freeze-thaw, long-term)
- Assay type: physicochemical
- MEASUREMENT CONDITIONS: rat plasma, HQC spiked 2000 ng/mL (4000 ng/mL for II), n = 5

- MOLECULE: "O=C(O)[C@H]1O[C@@H](Oc2cc(O)c3c(=O)cc(-c4ccc(O)cc4)oc3c2)[C@H](O)[C@@H](O)[C@@H]1O [IX, apigenin-7-O-β-D-glucuronide]"
  Freeze-Thaw Stability (Three Cycles), RE: "3.36%"
- MOLECULE: "O=C(/C=C/c1ccc(O)c(O)c1)O[C@H]1[C@H](O)C[C@](O)(C(=O)O)C[C@H]1O"
  Freeze-Thaw Stability (Three Cycles), RE: "6.55%"
- MOLECULE: "O=C(/C=C/c1ccc(O)c(O)c1)O[C@@H]1C[C@](O)(C(=O)O)C[C@@H](O)[C@H]1O [I, 5-caffeoylquinic acid]"
  Freeze-Thaw Stability (Three Cycles), RE: "−2.66%"

* * *

- ASSAY EXPLANATION: Pharmacokinetic study in rats after a single intravenous administration of concentrated Kudiezi injection (HPLC-MS/MS of plasma)
- Assay type: in vivo, Sprague-Dawley rats
- MEASUREMENT CONDITIONS: male, Sprague-Dawley, rat, plasma, iv, 3.6 mL/kg, single i.v. 3.6 mL/kg of 15 times concentrated KI, mean ± SD, n = 5, read-out: MRT0-∞
Would you please tag the item MET when its MRT inf is 4 h or above, and NOT MET when it is below?

- COMPOUND: "O=C(O)[C@H]1O[C@@H](Oc2cc(O)c3c(=O)cc(-c4ccc(O)c(O)c4)oc3c2)[C@H](O)[C@@H](O)[C@@H]1O [VII, luteolin-7-O-β-D-glucuronide]"
  ASSIGNED CLASS: "NOT MET"
- COMPOUND: "O=c1cc(-c2ccc(O)c(O)c2)oc2cc(O[C@@H]3O[C@H](CO)[C@@H](O)[C@H](O)[C@H]3O)cc(O)c12 [VIII, luteolin-7-O-β-D-glucoside]"
  ASSIGNED CLASS: "NOT MET"
- COMPOUND: "O=C(O)[C@H]1O[C@@H](Oc2cc(O)c3c(=O)cc(-c4ccc(O)cc4)oc3c2)[C@H](O)[C@@H](O)[C@@H]1O [IX, apigenin-7-O-β-D-glucuronide]"
  ASSIGNED CLASS: "NOT MET"
- COMPOUND: "O=c1cc(-c2ccc(O)c(O)c2)oc2cc(O[C@@H]3O[C@H](CO[C@@H]4O[C@H](CO)[C@@H](O)[C@H](O)[C@H]4O)[C@@H](O)[C@H](O)[C@H]3O)cc(O)c12 [Compound VI, luteolin-7-O-β-D-gentiobioside]"
  ASSIGNED CLASS: "NOT MET"
- COMPOUND: "O=C(/C=C/c1ccc(O)c(O)c1)O[C@@H](C(=O)O)[C@@H](O)C(=O)O"
  ASSIGNED CLASS: "MET"
- COMPOUND: "O=C(O)/C=C/c1ccc(O)c(O)c1"
  ASSIGNED CLASS: "MET"
- COMPOUND: "O=C(/C=C/c1ccc(O)c(O)c1)O[C@H]1[C@H](O)C[C@](O)(C(=O)O)C[C@H]1O"
  ASSIGNED CLASS: "MET"

* * *

- ASSAY EXPLANATION: Stability of the nine components in rat plasma QC samples (auto-sampler, freeze-thaw, long-term)
- Type: physicochemical
- MEASUREMENT CONDITIONS: rat plasma, LQC spiked 15 ng/mL (30 ng/mL for II), n = 5
compounds and their reported Freeze-Thaw Stability (Three Cycles), RE

- COMPOUND: "O=c1cc(-c2ccc(O)c(O)c2)oc2cc(O[C@@H]3O[C@H](CO[C@@H]4O[C@H](CO)[C@@H](O)[C@H](O)[C@H]4O)[C@@H](O)[C@H](O)[C@H]3O)cc(O)c12 [Compound VI, luteolin-7-O-β-D-gentiobioside]"
  Freeze-Thaw Stability (Three Cycles), RE (%): "−13.29"
- COMPOUND: "O=C(O)[C@H]1O[C@@H](Oc2cc(O)c3c(=O)cc(-c4ccc(O)c(O)c4)oc3c2)[C@H](O)[C@@H](O)[C@@H]1O [VII, luteolin-7-O-β-D-glucuronide]"
  Freeze-Thaw Stability (Three Cycles), RE (%): "−10.80"
- COMPOUND: "O=C(O)/C=C/c1ccc(O)c(O)c1 [Compound V, caffeic acid]"
  Freeze-Thaw Stability (Three Cycles), RE (%): "−13.66"

* * *

- ASSAY EXPLANATION: Stability of the nine components in rat plasma QC samples (auto-sampler, freeze-thaw, long-term)
- Assay type: physicochemical
- MEASUREMENT CONDITIONS: rat plasma, HQC spiked 2000 ng/mL (4000 ng/mL for II), n = 5

- COMPOUND: "O=C(O)[C@H]1O[C@@H](Oc2cc(O)c3c(=O)cc(-c4ccc(O)c(O)c4)oc3c2)[C@H](O)[C@@H](O)[C@@H]1O [VII, luteolin-7-O-β-D-glucuronide]"
  Freeze-Thaw Stability (Three Cycles), RE, %: 9.76
- COMPOUND: "O=c1cc(-c2ccc(O)c(O)c2)oc2cc(O[C@@H]3O[C@H](CO)[C@@H](O)[C@H](O)[C@H]3O)cc(O)c12 [VIII, luteolin-7-O-β-D-glucoside]"
  Freeze-Thaw Stability (Three Cycles), RE, %: 3.11
- COMPOUND: "O=C(O)/C=C/c1ccc(O)c(O)c1"
  Freeze-Thaw Stability (Three Cycles), RE, %: "−7.76"
- COMPOUND: "O=C(/C=C/c1ccc(O)c(O)c1)O[C@@H]1C[C@](O)(C(=O)O)C[C@@H](O)[C@H]1O [III, chlorogenic acid]"
  Freeze-Thaw Stability (Three Cycles), RE, %: 2.98
- COMPOUND: "O=C(/C=C/c1ccc(O)c(O)c1)O[C@@H](C(=O)O)[C@@H](O)C(=O)O"
  Freeze-Thaw Stability (Three Cycles), RE, %: 3.72
- COMPOUND: "O=c1cc(-c2ccc(O)c(O)c2)oc2cc(O[C@@H]3O[C@H](CO[C@@H]4O[C@H](CO)[C@@H](O)[C@H](O)[C@H]4O)[C@@H](O)[C@H](O)[C@H]3O)cc(O)c12 [Compound VI, luteolin-7-O-β-D-gentiobioside]"
  Freeze-Thaw Stability (Three Cycles), RE, %: 9.34

* * *

Items are presented alongside their recorded Freeze-Thaw Stability (Three Cycles), RE.
- ASSAY EXPLANATION: Stability of the nine components in rat plasma QC samples (auto-sampler, freeze-thaw, long-term)
- Type: physicochemical
- MEASUREMENT CONDITIONS: rat plasma, LQC spiked 15 ng/mL (30 ng/mL for II), n = 5
RECORDED METRIC: Freeze-Thaw Stability (Three Cycles), RE (%)

- MOLECULE: "O=C(/C=C/c1ccc(O)c(O)c1)O[C@@H]1C[C@](O)(C(=O)O)C[C@@H](O)[C@H]1O [I, 5-caffeoylquinic acid]"
  RECORDED METRIC: "Freeze-Thaw Stability (Three Cycles), RE"
  READOUT VALUE: "−16.92"
- MOLECULE: "O=C(/C=C/c1ccc(O)c(O)c1)O[C@@H]1C[C@](O)(C(=O)O)C[C@@H](O)[C@H]1O [III, chlorogenic acid]"
  RECORDED METRIC: "Freeze-Thaw Stability (Three Cycles), RE"
  READOUT VALUE: "−18.29"
- MOLECULE: "O=C(O)[C@H]1O[C@@H](Oc2cc(O)c3c(=O)cc(-c4ccc(O)cc4)oc3c2)[C@H](O)[C@@H](O)[C@@H]1O [IX, apigenin-7-O-β-D-glucuronide]"
  RECORDED METRIC: "Freeze-Thaw Stability (Three Cycles), RE"
  READOUT VALUE: "−13.08"
- MOLECULE: "O=C(/C=C/c1ccc(O)c(O)c1)O[C@@H](C(=O)O)[C@@H](O)C(=O)O"
  RECORDED METRIC: "Freeze-Thaw Stability (Three Cycles), RE"
  READOUT VALUE: "−17.36"
- MOLECULE: "O=C(/C=C/c1ccc(O)c(O)c1)O[C@H]1[C@H](O)C[C@](O)(C(=O)O)C[C@H]1O"
  RECORDED METRIC: "Freeze-Thaw Stability (Three Cycles), RE"
  READOUT VALUE: "−14.73"
- MOLECULE: "O=c1cc(-c2ccc(O)c(O)c2)oc2cc(O[C@@H]3O[C@H](CO)[C@@H](O)[C@H](O)[C@H]3O)cc(O)c12 [VIII, luteolin-7-O-β-D-glucoside]"
  RECORDED METRIC: "Freeze-Thaw Stability (Three Cycles), RE"
  READOUT VALUE: "−11.91"

* * *

- ASSAY EXPLANATION: Stability of the nine components in rat plasma QC samples (auto-sampler, freeze-thaw, long-term)
- Type: physicochemical
- MEASUREMENT CONDITIONS: extracted rat plasma, HQC spiked 2000 ng/mL (4000 ng/mL for II), n = 5
In this section we review reported 6 h in Auto-Sample, RE values for a set of molecules.

- MOLECULE: "O=C(/C=C/c1ccc(O)c(O)c1)O[C@@H]1C[C@](O)(C(=O)O)C[C@@H](O)[C@H]1O [I, 5-caffeoylquinic acid]"
  6 h in Auto-Sample, RE (%): "−5.26"
- MOLECULE: "O=C(/C=C/c1ccc(O)c(O)c1)O[C@@H](C(=O)O)[C@@H](O)C(=O)O"
  6 h in Auto-Sample, RE (%): 3.63
- MOLECULE: "O=c1cc(-c2ccc(O)c(O)c2)oc2cc(O[C@@H]3O[C@H](CO)[C@@H](O)[C@H](O)[C@H]3O)cc(O)c12 [VIII, luteolin-7-O-β-D-glucoside]"
  6 h in Auto-Sample, RE (%): 0.65
- MOLECULE: "O=C(O)[C@H]1O[C@@H](Oc2cc(O)c3c(=O)cc(-c4ccc(O)cc4)oc3c2)[C@H](O)[C@@H](O)[C@@H]1O [IX, apigenin-7-O-β-D-glucuronide]"
  6 h in Auto-Sample, RE (%): 7.78
- MOLECULE: "O=C(/C=C/c1ccc(O)c(O)c1)O[C@@H]1C[C@](O)(C(=O)O)C[C@@H](O)[C@H]1O [III, chlorogenic acid]"
  6 h in Auto-Sample, RE (%): "−2.78"
- MOLECULE: "O=C(/C=C/c1ccc(O)c(O)c1)O[C@H]1[C@H](O)C[C@](O)(C(=O)O)C[C@H]1O"
  6 h in Auto-Sample, RE (%): 6.12
- MOLECULE: "O=c1cc(-c2ccc(O)c(O)c2)oc2cc(O[C@@H]3O[C@H](CO[C@@H]4O[C@H](CO)[C@@H](O)[C@H](O)[C@H]4O)[C@@H](O)[C@H](O)[C@H]3O)cc(O)c12 [Compound VI, luteolin-7-O-β-D-gentiobioside]"
  6 h in Auto-Sample, RE (%): 0.23
- MOLECULE: "O=C(O)[C@H]1O[C@@H](Oc2cc(O)c3c(=O)cc(-c4ccc(O)c(O)c4)oc3c2)[C@H](O)[C@@H](O)[C@@H]1O [VII, luteolin-7-O-β-D-glucuronide]"
  6 h in Auto-Sample, RE (%): 5.65
- MOLECULE: "O=C(O)/C=C/c1ccc(O)c(O)c1"
  6 h in Auto-Sample, RE (%): "−11.88"
